Reference for the values: ChEMBL document CHEMBL4257570

TEST_NAME: Metabolic stability of rat liver microsomes assessed as parent compound remaining after 10 mins
Assay type: ADME, microsome
CONDITION_SET: read-out: Stability
# remaining at 10 min values compiled below
Give just the numeric value; % need not be written.

Completed entries (count: 6):
>  <COMPOUND>
COc1ccccc1-n1nc([C@H]2C[C@@H](C)O[C@@H](C)C2)cc1-c1ccc(Cl)cc1

>  <READING_UNIT>
%

>  <EXPERIMENTAL_RESULT>
18

$$$$
>  <COMPOUND>
COc1ccccc1-n1nc(C2C[C@H](C)O[C@@H](C)C2)cc1-c1ccc(Cl)cc1 (relative stereo)

>  <READING_UNIT>
%

>  <EXPERIMENTAL_RESULT>
14

$$$$
>  <COMPOUND>
COCCCc1cc(-c2ccc(Cl)cc2)n(-c2ccccc2OC)n1

>  <READING_UNIT>
%

>  <EXPERIMENTAL_RESULT>
4

$$$$
>  <COMPOUND>
COc1ccccc1-n1nc(C2CCOC(C)(C)C2)cc1-c1ccc(Cl)cc1 (configuration not stated)

>  <READING_UNIT>
%

>  <EXPERIMENTAL_RESULT>
21

$$$$
>  <COMPOUND>
COc1ccccc1-n1nc(C2CCOCC2)cc1-c1ccc(Cl)cc1

>  <READING_UNIT>
%

>  <EXPERIMENTAL_RESULT>
8

$$$$
>  <COMPOUND>
COc1ccccc1-n1nc(C2=CC(C)(C)OC(C)(C)C2)cc1-c1ccc(Cl)cc1

>  <READING_UNIT>
%

>  <EXPERIMENTAL_RESULT>
37

$$$$

Here is another compound to look at.
Fill in the blank: the reported remaining at 10 min of COc1ccccc1-n1nc([C@@H]2CCO[C@@H](C(C)C)C2)cc1-c1ccc(Cl)cc1 (relative stereo) is ____.
14
